- measured target: recombinant human ACC2 (Homo sapiens, UniProt O00763)
- Construct: a full length Cytomax clone of ACC2 was purchased from Cambridge Bioscience Limited; made in house; host or cells: CHO cells (tetracycline induction, pcDNA5 FRT TO-TOPO); purified on a Softlink Soft Release Avidin column
- Sequence (O00763 whole entry): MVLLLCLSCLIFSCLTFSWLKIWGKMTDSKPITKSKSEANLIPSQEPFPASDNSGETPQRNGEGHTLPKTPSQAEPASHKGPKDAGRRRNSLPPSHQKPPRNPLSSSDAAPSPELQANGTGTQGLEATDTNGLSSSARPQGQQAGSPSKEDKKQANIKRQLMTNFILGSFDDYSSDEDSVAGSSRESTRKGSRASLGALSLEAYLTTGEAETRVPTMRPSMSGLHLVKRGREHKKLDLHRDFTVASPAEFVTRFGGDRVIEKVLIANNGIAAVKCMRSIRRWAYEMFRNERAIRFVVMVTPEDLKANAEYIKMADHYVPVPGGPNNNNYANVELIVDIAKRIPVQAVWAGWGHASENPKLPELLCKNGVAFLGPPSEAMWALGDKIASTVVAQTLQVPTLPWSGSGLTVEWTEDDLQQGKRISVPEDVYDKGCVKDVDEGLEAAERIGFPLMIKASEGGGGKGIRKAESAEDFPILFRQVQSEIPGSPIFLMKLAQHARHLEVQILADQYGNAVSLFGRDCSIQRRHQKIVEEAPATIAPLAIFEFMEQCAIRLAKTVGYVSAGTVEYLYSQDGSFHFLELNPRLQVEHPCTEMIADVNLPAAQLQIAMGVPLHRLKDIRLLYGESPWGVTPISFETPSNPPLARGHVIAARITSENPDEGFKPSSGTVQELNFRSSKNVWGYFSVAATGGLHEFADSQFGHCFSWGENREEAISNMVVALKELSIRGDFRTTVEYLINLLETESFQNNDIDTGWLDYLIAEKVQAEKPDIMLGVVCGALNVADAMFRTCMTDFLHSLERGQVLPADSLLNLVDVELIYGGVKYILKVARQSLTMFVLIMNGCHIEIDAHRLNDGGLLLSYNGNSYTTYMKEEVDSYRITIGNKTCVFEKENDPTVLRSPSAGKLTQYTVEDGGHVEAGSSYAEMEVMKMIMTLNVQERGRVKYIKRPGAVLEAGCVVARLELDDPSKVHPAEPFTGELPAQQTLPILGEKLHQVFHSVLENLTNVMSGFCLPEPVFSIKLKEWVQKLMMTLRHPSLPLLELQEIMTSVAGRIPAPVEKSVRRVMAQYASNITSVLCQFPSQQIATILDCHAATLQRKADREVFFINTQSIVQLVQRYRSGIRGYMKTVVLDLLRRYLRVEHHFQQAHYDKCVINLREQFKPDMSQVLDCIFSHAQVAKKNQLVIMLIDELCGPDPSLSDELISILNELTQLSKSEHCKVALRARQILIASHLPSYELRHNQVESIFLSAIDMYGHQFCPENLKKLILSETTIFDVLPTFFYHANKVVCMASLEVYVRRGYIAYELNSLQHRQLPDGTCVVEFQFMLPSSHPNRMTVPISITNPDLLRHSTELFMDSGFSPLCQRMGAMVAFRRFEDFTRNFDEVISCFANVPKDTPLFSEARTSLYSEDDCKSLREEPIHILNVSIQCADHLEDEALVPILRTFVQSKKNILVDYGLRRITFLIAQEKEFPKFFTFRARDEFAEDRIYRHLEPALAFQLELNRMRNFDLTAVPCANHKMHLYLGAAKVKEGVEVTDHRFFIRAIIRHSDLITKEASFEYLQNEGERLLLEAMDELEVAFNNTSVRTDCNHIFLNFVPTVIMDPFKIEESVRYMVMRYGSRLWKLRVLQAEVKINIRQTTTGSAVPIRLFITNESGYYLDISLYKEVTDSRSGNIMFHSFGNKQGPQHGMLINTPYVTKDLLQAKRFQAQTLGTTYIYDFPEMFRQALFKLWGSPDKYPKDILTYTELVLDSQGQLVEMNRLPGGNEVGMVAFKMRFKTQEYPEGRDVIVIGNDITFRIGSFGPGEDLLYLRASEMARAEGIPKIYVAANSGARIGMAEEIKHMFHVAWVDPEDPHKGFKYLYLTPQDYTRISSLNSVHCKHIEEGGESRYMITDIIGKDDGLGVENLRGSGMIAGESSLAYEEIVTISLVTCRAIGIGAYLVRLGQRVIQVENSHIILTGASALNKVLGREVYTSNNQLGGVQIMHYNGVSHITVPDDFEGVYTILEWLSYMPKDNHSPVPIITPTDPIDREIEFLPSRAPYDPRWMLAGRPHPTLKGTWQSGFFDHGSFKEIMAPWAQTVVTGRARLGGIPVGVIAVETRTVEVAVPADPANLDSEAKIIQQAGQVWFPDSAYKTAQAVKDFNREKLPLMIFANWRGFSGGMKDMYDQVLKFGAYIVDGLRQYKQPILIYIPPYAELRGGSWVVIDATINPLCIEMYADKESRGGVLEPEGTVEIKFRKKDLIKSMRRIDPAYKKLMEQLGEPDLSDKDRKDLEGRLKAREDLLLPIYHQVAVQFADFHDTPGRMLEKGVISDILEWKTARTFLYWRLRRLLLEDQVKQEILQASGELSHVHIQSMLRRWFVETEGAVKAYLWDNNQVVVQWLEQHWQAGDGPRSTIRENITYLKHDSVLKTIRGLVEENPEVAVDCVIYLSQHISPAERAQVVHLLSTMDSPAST
- method notes: Measurement of human ACC2 inhibition (recombinant hACC2 Transcreener ADP detection FP assay)
- Type: biochemical
- experimental parameters: recombinant hACC2 transcreener assay; read-out: rhACC2 IC50
quantity kind: log10 of IC50 (log10 of the value in nM)
Could you please treat all values as log10 of IC50 in nM?

Query (molecule): Cc1c2c(nn1C(C)C)C(=O)CC1(CCN(C(=O)c3cc(Cl)c4[nH]ncc4c3)CC1)O2 [1.133] ; field requested: log10 of IC50
0.60

Could you share which log10 of IC50 value was measured for Cc1cc(C(=O)N2CCC3(CC2)CC(=O)c2nn(C4CCC4)cc2O3)cc2cn[nH]c12 [1.039] ?
1.11

Requested field: log10 of IC50. Item: CC(C)(C)n1cc2c(n1)C(=O)CC1(CCN(C(=O)c3ccc4cnsc4c3)CC1)O2 [24.001]
1.36

Value lookup for log10 of IC50; key = CCn1nc2c(c1C)OC1(CCN(C(=O)c3ccc4cccnc4c3)CC1)CC2=O [16.002]
2.40

What log10 of IC50 value was documented for this molecule, CCn1nc2c(c1C)OC1(CCN(C(=O)c3ccc4nc(C)[nH]c4c3)CC1)CC2=O [3.013] ?
2.32

Tell me the measured log10 of IC50 of COc1cc(C(=O)N2CCC3(CC2)CC(=O)c2nn(C(C)C)c(C)c2O3)cc2cn[nH]c12 [1.055] , please.
1.00

Name the reported log10 of IC50 value associated with the molecule COc1cc(C(=O)N2CCC3(CC2)CC(=O)c2nn(CC(C)C)c(C)c2O3)cc2cn[nH]c12 [1.131]
1.28

# get_value(readout='log10 of IC50', item= Cc1ccc2cc(C(=O)N3CCC4(CC3)CC(=O)c3nn(C(C)(C)C)cc3O4)ccc2n1 [15.001] )
1.41

Find the recorded log10 of IC50 belonging to CCC(C)n1nc2c(c1C)OC1(CCN(C(=O)c3ccc4[nH]nc(C)c4c3)CC1)CC2=O (centres unmarked) [1.137] and report it.
0.95

Entry under review: Cc1cc(C(=O)N2CCC3(CC2)CC(=O)c2nn(C(C)C)c(C)c2O3)cc2[nH]cnc12 [3.017] . Reported log10 of IC50?
1.15

Suppose we examine the molecule Cc1nc2c(F)cc(C(=O)N3CCC4(CC3)CC(=O)c3nn(C(C)(C)C)cc3O4)cc2[nH]1 [3.019] ; what log10 of IC50 value has been reported?
1.23

Consider the molecule shown here: CCOc1cc(C(=O)N2CCC3(CC2)CC(=O)c2nn(C(C)C)cc2O3)cc2c(C)n[nH]c12 [1.120] What is its recorded log10 of IC50?
0.78

Give its log10 of IC50 value. Item: COc1cc(C(=O)N2CCC3(CC2)CC(=O)c2nn(C(C)C)cc2O3)cc2c(C)n[nH]c12 [1.075]
0.78

Please report the recorded log10 of IC50 for COc1c(C(=O)N2CCC3(CC2)CC(=O)c2nn(C(C)C)cc2O3)ccc2cn[nH]c12 [2.022] .
1.67

# input molecule: Cc1ccc2cc(C(=O)N3CCC4(CC3)CC(=O)c3nn(C(C)(C)C)cc3O4)ccc2c1 [6.005] ; wanted: its log10 of IC50
1.68

Data request, read-out log10 of IC50, for CC(C)(C)n1cc2c(n1)C(=O)CC1(CCN(C(=O)c3ccc4ncccc4c3)CC1)O2 [15.002]
1.04
